src = patent US8653263B2

- Measured target: human orexin-2 receptor (Homo sapiens (Human), UniProt O43614)
- Sequence (O43614 whole entry): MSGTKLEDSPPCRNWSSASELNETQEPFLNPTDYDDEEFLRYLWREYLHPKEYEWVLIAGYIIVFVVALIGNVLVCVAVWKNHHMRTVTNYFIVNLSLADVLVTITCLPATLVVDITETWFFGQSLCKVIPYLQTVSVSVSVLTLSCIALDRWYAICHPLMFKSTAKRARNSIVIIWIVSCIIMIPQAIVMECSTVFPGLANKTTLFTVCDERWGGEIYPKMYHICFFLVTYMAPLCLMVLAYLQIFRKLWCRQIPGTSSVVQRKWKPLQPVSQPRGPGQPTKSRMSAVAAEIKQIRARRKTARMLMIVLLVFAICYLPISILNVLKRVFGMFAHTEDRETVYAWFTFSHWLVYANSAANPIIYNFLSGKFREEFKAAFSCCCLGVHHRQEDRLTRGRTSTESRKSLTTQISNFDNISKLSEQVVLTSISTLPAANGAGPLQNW
- Test method notes: Human orexin 2 receptor radioligand binding ([3H]-EMPA competition)
- Details: HEK293 cells stably expressing human orexin-2 receptor; [3H]-EMPA 5 nM final; apparent Ki=IC50/(1+C/Kd), Kd=2 nM; read-out: OR 2 Ki
pKi: −log10 of the molar value.
If the reported pKi equals or exceeds 7, assign 1. If not, assign 0.

Molecule | Class label
COc1ccc(-n2nccn2)c(C(=O)N2CC3CN(c4cnc5cc(F)c(F)cc5n4)CC3C2)c1 (centres unmarked) | 1
COc1ccc(-n2nccn2)c(C(=O)N2CC3CN(c4nc(C)c(C)c(C)n4)CC3C2)c1 (centres unmarked) | 1
Cc1cc(C)nc(N2CC3CN(C(=O)c4ccccc4-c4nccn4C)CC3C2)n1 (centres unmarked) | 0
COc1cc(OC)nc(N2CC3CN(C(=O)c4cc(F)ccc4-n4nccn4)CC3C2)n1 (centres unmarked) | 0
O=C(c1ccccc1-c1cccs1)N1CC2CN(c3nccc(-c4cn[nH]c4)n3)CC2C1 (centres unmarked) | 1
O=C(c1ccccc1-n1nccn1)N1CC2CN(c3cnc4ccccc4n3)CC2C1 (centres unmarked) | 0
O=C(c1ccccc1-c1ccccc1)N1CC2CN(c3ccc4ccccc4n3)CC2C1 (centres unmarked) | 0
O=C(c1ccccc1-c1cccs1)N1CC2CN(c3ccc4ccccc4n3)CC2C1 (centres unmarked) | 0
Cc1cc(C)nc(N2CC3CN(C(=O)c4ccc(F)cc4C(F)(F)F)CC3C2)n1 (centres unmarked) | 0
O=C(c1ccccc1-c1nnc[nH]1)N1CC2CN(c3nc4ccccc4nc3C(F)(F)F)CC2C1 (centres unmarked) | 0
Cc1cc(C)nc(N2CC3CN(C(=O)c4cccnc4-c4ncccn4)CC3C2)n1 (centres unmarked) | 0
Cc1cc(C)nc(N2CC3CN(C(=O)c4ccc(F)cc4-c4ncco4)CC3C2)n1 (centres unmarked) | 1
O=C(c1ccccc1-c1ccccc1)N1CC2CN(c3nc4ccc(Cl)cc4s3)CC2C1 (centres unmarked) | 0
Cc1cncc(N2CC3CN(C(=O)c4ccc(F)cc4-n4nccn4)CC3C2)n1 (centres unmarked) | 1
Cc1cc(C)nc(N2CC3CN(C(=O)c4cnoc4-c4ccccc4)CC3C2)n1 (centres unmarked) | 0

====

- Measured target: human orexin-2 receptor (Homo sapiens (Human))
- Test method notes: Human orexin 2 receptor radioligand binding ([3H]-EMPA competition)
- Details: HEK293 cells stably expressing human orexin-2 receptor; [3H]-EMPA 5 nM final; apparent Ki=IC50/(1+C/Kd), Kd=2 nM; read-out: OR 2 Ki
pKi: −log10 of the molar value.
Measured parameter: pKi

Molecule | Value measured
COc1cc(Cl)ccc1C(=O)N1CC2CN(c3nc(C)cc(C)n3)CC2C1 (centres unmarked) [Example 222] | 5.44
COc1cc(OC)nc(N2CC3CN(C(=O)c4ccccc4-c4ccccn4)CC3C2)n1 (centres unmarked) [Example 70] | 7.28
Cc1ccc(-c2ncccn2)c(C(=O)N2CC3CN(c4cc(C(F)(F)F)nc(N(C)C)n4)CC3C2)c1 (centres unmarked) [Example 108] | 7.24
Cc1cc(C)nc(N2CC3CN(C(=O)c4cccnc4C(F)(F)F)CC3C2)n1 (centres unmarked) [Example 233] | 5.68
COc1ccccc1C(=O)N1CC2CN(c3nc4ccccc4o3)CC2C1 (centres unmarked) [Example 180] | 5.64
